System: M21
Protocol summary: Antiproliferative activity against human M21 cells assessed as cell growth inhibition incubated for 48 hrs by sulforhodamine B assay
Format: functional, cell-based
Condition parameters: M21, 48 h
Result type: IC50

CCCCCN1CCN(c2ccc(S(=O)(=O)Oc3cccc(F)c3)cc2)C1=O = > 12500 nM
CCCCCCN1CCN(c2ccc(S(=O)(=O)Oc3cc(OC)c(OC)c(OC)c3)cc2)C1=O = > 2500 nM
CCCCCN1CCN(c2ccc(S(=O)(=O)Oc3cccc(Br)c3)cc2)C1=O = > 12500 nM

# query: IC50 of entry CCCCCN1CCN(c2ccc(S(=O)(=O)Oc3ccc(OC)c(OC)c3)cc2)C1=O 500 nM

Quick check: IC50 of CCCCCCCCN1CCN(c2ccc(S(=O)(=O)Oc3cccc(Br)c3)cc2)C1=O ? > 1250 nM

Quick check: IC50 of CCCCCN1CCN(c2ccc(S(=O)(=O)Oc3cc(Cl)cc(Cl)c3)cc2)C1=O ? > 5000 nM

Param item = CCCCCN1CCN(c2ccc(S(=O)(=O)Oc3cccc(Cl)c3)cc2)C1=O ; retrieve measured IC50. > 12500 nM

Tell me the measured IC50 of CCCCCCCCN1CCN(c2ccc(S(=O)(=O)Oc3ccccc3)cc2)C1=O , please. > 1250 nM

Suppose we examine the compound CCCCCCN1CCN(c2ccc(S(=O)(=O)Oc3cccc(Cl)c3)cc2)C1=O ; what IC50 value has been reported? > 2500 nM

Please give the measured IC50 for this compound: CCCCCCN1CCN(c2ccc(S(=O)(=O)Oc3cccc(F)c3)cc2)C1=O > 2500 nM

Return reported IC50; argument: CCCCCCCCN1CCN(c2ccc(S(=O)(=O)Oc3ccc(OC)cc3)cc2)C1=O > 1250 nM

Look up IC50 for this compound: COc1cc(OS(=O)(=O)c2ccc(N3CCNC3=O)cc2)cc(OC)c1OC 40 nM

Give the measured IC50 of CCCCCCN1CCN(c2ccc(S(=O)(=O)Oc3cc(Br)cc(Br)c3)cc2)C1=O . 730 nM

If you can, please state the reported IC50 value of CCCCCN1CCN(c2ccc(S(=O)(=O)Oc3cc(Br)cc(Br)c3)cc2)C1=O . > 500 nM

====

Protocol summary: Stability in human liver microsomes assessed as half life incubated for 60 mins by HPLC analysis
Format: ADME, Microsome
Result type: half-life (h)
Provide only the numeric value, understood in h.

CCCCN1CCN(c2ccc(S(=O)(=O)Oc3cc(OC)cc(OC)c3)cc2)C1=O = 1.12

Return reported half-life; argument: CCCCCN1CCN(c2ccc(S(=O)(=O)Oc3cccc(Cl)c3)cc2)C1=O 4.83

What half-life value was documented for this molecule, CCCCN1CCN(c2ccc(S(=O)(=O)Oc3cc(Cl)cc(Cl)c3)cc2)C1=O ? 1.48

Requested field: half-life. Item: CCCCN1CCN(c2ccc(S(=O)(=O)Oc3cccc(I)c3)cc2)C1=O 1.67

So what's the measured half-life for this one? CCCCN1CCN(c2ccc(S(=O)(=O)Oc3cccc(Cl)c3)cc2)C1=O 2.1

Give its half-life value. Item: CCCCCN1CCN(c2ccc(S(=O)(=O)Oc3cccc(I)c3)cc2)C1=O 1.28

Given the entry CCCCCN1CCN(c2ccc(S(=O)(=O)Oc3cc(OC)cc(OC)c3)cc2)C1=O , report its measured half-life. 1.17

Bench note: what half-life did CCCCCN1CCN(c2ccc(S(=O)(=O)Oc3cc(OC)c(OC)c(OC)c3)cc2)C1=O show? 0.95

Please give the measured half-life for this molecule: CCCN1CCN(c2ccc(S(=O)(=O)Oc3cc(OC)c(OC)c(OO)c3)cc2)C1=O 1.82

Reported half-life for CCCCCN1CCN(c2ccc(S(=O)(=O)Oc3cc(Cl)cc(Cl)c3)cc2)C1=O : what is it? 2

Dear colleague, I am looking for the recorded half-life of the following molecule: CCCCN1CCN(c2ccc(S(=O)(=O)Oc3cc(OC)c(OC)c(OC)c3)cc2)C1=O 1.53
